Each recorded value in this set is attributed to the supplement of paper PMC6555819.

Tested on: PPARg:RXRa IVT, anti-PPARg (NR concentration 270 nM, RXRa partner concentration 90 nM)
protocol summary: PBM binding z-score (relative to random genomic background probes); higher = stronger binding; sequences stand for … in GC…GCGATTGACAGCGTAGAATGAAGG
Parameter: PBM binding z-score. Scope: all listed entries.
property: PBM binding z-score

CATACAGGGTCGGCTAGGCCAGAGTAGGGACGGC    0.00635
CCGAATAGGTTACGAGGGGGCATTCAGTGCGAAT    3.59
AGAATGAGGTCAAGATCAGGGAAACAGAATACAT    6.55
ATATGTAGGTTATCGGGTCATACAGTTTGCGCAT    7.62
TCTTGTAGATCAACAGGAGGTTAATAAAGATCGA    0.851
AGAATGAGGTTAAACGTAGATCAGGGAAGAAAGT    3.75
AGAATGAGGTCATACGTAGATCAGGGAAGAAAGT    6.69
CGAACGAGGTCATCCAGGACAGTGAATACATTGA    6.11
CGTCCAAGGTCACGGTCAGTGAAAGAGACTCGAA    5.66
CGTCCAAGGTCGAAGGTCAGTGAAGAGATGACGG    2.36
TATCAAAGTTCAAAGGTAACGTAAGTATCCACAC    2.37
TAGCCTAGGTCATGGGCCAGTGTACCACGCGAAC    3.43
ATATGTAGGTTAGCTGGGGTCCTTCAGACTAGGC    5.77
CGAACTAGGTCAAAGGACATTGAAAGGCGACGTA    8.46
ATCGAAAGGTCATGAGGTGAGTATACAGAAAGGC    5.59
GCTTACGGGTCAAAGGTCATAGCATGAATAGAAT    7.02
CCAACTGGGCCAAAAAGGTCATTGATGCCGATAA    3.89
AGAATGGGGTTACCAAAGATCAGGGAAACGCTTG    4.08
CCTCGGAGGACAACAGGAGGTCATAGCTGCCAGA    0.613
CCTTAAGGGTCACGAGGTTATAGCACGACGAGCG    5.81
TCTAGTTGGTCACGGAGGGCACACACGACGGGTA    2.85
CGTCCAAGGTCAATGCTAGATCAGTGAAAGCATT    3.17
CTATGTAGGTTACGGGGGTCATTCAGTTTGAAAG    7.98
AGTCAAAGTTTATCTAGGTAACGTAAGATATGCT    4.84
TAGCCTAGGTTATGGGCCAGTATACCACGCGAAC    0.996
CGTCAAAGGTCAAGGTCAGTGAAAGAGACTCGAA    6.36
CGAACTAGGTCAAGGGACAGTGAAAGGCGACGTA    8.18
TTACCAAGGTCAAGGTCGTTGATCCCTCTGTAGA    5.09
ATCGAAAGGTCAAGGTGAGTATAGAGAAAGGGAA    5.43
TCTAGTTGGTCTAAGGTCACACACTCGAAATGCG    3.51
CGTCTAAGGTCATAGGAGGTCAGTGAAGACAGAT    4.85
AGCGAAAGGTCGAGGTGAGTATAGAGAAAGGGAA    2.26
CGAACTAGGTCATTGACAGGACAATGAATAGTAA    8.41
CAAACGAGGTCACGAAAGGTCAAAGTCGAATGAC    7.7
CAAACAAGGTCACCGGAAGGTCAAAGTCCGCATG    6.66
TAGCCTAGTTCATTCAGGGGCCAGTATAGAAAGC    1.45
CAAACAAGGTCACGAAAGGTCAAAGTCGAATGAC    7.11
CGTCCAAGGTCATATGAGGTCAGTGAAGACAGAT    3.84
TCTCGGAGGTCACGAAAGGTCAGAGCTCGACATC    6.3
CGTCCAAGGTTAAGGTCAGTGAAAGAGACTCGAA    2.04
AGTCAAAGTTGAGGACGAGGTAACGTAAAGCACG    0.639
GATACAGGGTCGGCTAGAGGCCAGAGTATGGAAA    -0.134
CCGACGGGGGCAAAGGTTACCATACTCAGTACGA    5.25
TACCCTAGGTCATGGGCCAGTATACCACGCGAAC    3.86
TCTAGTCGGTCAAAGGTCACACACTCGAAATGCG    6.92
CAGCATAGGTCAGGGCCAGTATAGGAGGAACGTT    1.1
